Target: Luciferin 4-monooxygenase (Photinus pyralis) (UniProt P08659)
Sequence (P08659 whole entry, looked up): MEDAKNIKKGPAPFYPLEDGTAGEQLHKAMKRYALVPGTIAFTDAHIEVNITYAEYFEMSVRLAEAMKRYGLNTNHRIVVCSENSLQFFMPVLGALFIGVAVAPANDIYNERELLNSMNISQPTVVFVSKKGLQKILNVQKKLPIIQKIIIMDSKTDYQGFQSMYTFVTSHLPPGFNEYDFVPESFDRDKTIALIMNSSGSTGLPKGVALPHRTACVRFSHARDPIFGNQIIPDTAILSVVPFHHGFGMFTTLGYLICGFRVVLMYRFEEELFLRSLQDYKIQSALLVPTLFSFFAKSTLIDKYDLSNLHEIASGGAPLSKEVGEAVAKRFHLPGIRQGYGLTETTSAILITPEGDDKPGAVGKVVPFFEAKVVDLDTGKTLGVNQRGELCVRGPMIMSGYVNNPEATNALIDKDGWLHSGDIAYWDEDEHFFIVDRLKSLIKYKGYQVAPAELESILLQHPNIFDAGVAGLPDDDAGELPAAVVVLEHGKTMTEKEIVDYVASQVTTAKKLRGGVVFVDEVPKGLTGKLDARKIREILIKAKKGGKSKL
Test: Biochemical firefly luciferase enzyme assay for NPC (AID 624030); also: nearly all actives have a fitted effect of over 70% in size
Conditions: purified P. pyralis luciferase, luminescence, 5 min; series mostly up to 58.6 µM
Results filed as inconclusive are left out. Calls of active or inactive are those of the source. Calls follow the shape of the dose curve; as a rule, active = well fitted inhibition curve with a large enough effect; inconclusive = small, poorly fitted or top-dose-only effect; inactive = flat fitted curve, though single readings scatter.
Your reply should match one of these outcome classes. True (active), False (inactive)

Example cases with answers are listed next.
CCNC(=O)[C@@H]1CCCN1C(=O)[C@H](CCCN=C(N)N)NC(=O)[C@H](CC(C)C)NC(=O)[C@@H](Cc1c[nH]c2ccccc12)NC(=O)[C@H](Cc1ccc(O)cc1)NC(=O)[C@H](CO)NC(=O)[C@H](Cc1c[nH]c2ccccc12)NC(=O)[C@H](Cc1cnc[nH]1)NC(=O)[C@@H]1CCC(=O)N1 ... False
CCCCCCCC/C=C\CCCCCCCC(=O)O ... False
CCOc1ccc(N=Nc2ccc(N)cc2N)cc1 ... True

Which outcome was assigned to CC(C)N=c1cc2n(-c3ccc(Cl)cc3)c3ccccc3nc-2cc1Nc1ccc(Cl)cc1 in this test?
False

Which outcome was assigned to C#CCOc1ccc2c(C)cc(=O)oc2c1 in this test?
False

Which outcome was assigned to CC1=CCC(C(C)(C)O)CC1 (stereo not given) in this test?
False

Which outcome was assigned to C[C@]12O[C@H](C[C@]1(O)CO)n1c3ccccc3c3c4c(c5c6ccccc6n2c5c31)CNC4=O in this test?
False

Which outcome was assigned to CCC(=O)NCCC1CCc2ccc3c(c21)CCO3 (stereo not given) in this test?
False

Which outcome was assigned to C[C@H]1C[C@H]2[C@@H]3CCC4=CC(=O)C=C[C@]4(C)[C@@]3(F)[C@@H](O)C[C@]2(C)[C@@]1(O)C(=O)CO in this test?
False

Which outcome was assigned to O=C(Nc1ccc(Br)cc1)c1cc(Br)c(Br)s1 in this test?
True

* * *

Target: Cytochrome P450 2C9 (Homo sapiens) (UniProt P11712)
Sequence (P11712 whole entry, looked up): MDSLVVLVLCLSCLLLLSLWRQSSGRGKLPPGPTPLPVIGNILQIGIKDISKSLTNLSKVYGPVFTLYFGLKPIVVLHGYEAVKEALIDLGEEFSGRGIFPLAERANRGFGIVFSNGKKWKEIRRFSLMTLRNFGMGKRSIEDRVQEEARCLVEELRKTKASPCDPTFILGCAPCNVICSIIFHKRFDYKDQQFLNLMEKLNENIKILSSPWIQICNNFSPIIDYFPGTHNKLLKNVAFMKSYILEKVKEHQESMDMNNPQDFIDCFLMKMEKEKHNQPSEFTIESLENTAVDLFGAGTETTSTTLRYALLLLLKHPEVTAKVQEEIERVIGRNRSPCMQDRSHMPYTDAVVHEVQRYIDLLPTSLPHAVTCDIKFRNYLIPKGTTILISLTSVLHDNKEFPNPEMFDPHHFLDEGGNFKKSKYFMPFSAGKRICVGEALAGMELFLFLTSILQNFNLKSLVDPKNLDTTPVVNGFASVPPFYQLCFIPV
Test: Cytochrome P450 family 2 subfamily C member 9 (CYP2C9) small molecule antagonists: luciferase biochemical (cell-free) qHTS assay (AID 1645842); also: nearly all actives have a fitted effect of over 55% in size; also: potency is read from the fitted curve at half-maximal effect
Conditions: P450-Glo CYP2C9 enzyme assay, luciferin luminescence; series mostly up to 57.4 µM
Inconclusive results are not listed. Active and inactive are the calls of the source. Calls come from the whole dose curve; as a rule, active = well fitted inhibition curve with a large enough effect in the repeat runs; inconclusive = weak or mixed curves; inactive = no such curve, though single readings can be large or run the other way.
measurement name: Potency

Examples from the recorded data:
CC(=O)c1cnc2ccc(-c3cc(Cl)c(O)c(Cl)c3)nc2c1NC1CCC(CN(C)C)CC1 (centres undefined) ... inactive
CC(C)(C)c1cc(CN2CCN(CC(O)c3ccc(Cl)cc3)CC2)cc(C(C)(C)C)c1O (centres undefined) ... 8.49 µM (active)
COc1ccccc1[C@@H]1C2=C(CC(C)(C)CC2=O)Nc2n[nH]c(C(F)(F)F)c21 ... 8.49 µM (active)
CCN(CC)Cc1cc(Nc2ccnc3cc(Cl)ccc23)ccc1O ... inactive
O=C(CCCCc1ccc2ccccc2c1)C(F)(F)F ... 9.52 µM (active)
CC1(C)C(=O)C(C)(C)c2cc(C(=O)Nc3ccc(C(=O)O)cc3)ccc21 ... inactive
FC(F)(F)c1cc(C(F)(F)F)c2ccc3nc(-c4nnco4)cn3c2n1 ... inactive
O=C1CC(c2ccc([N+](=O)[O-])cc2)=NN1c1ccccc1 ... 13.5 µM (active)
O=C(/C=C/c1c(C(=O)O)[nH]c2cc(Cl)cc(Cl)c12)Nc1ccccc1 ... 21.3 µM (active)
CN1Cc2c(N)cccc2C(c2ccccc2)C1 (centres undefined) ... inactive

Hey, quick one: what's Potency for each of these?
1. Nc1nc(N)c2nc(CNc3ccc(C(=O)N[C@@H](CCC(=O)O)C(=O)O)cc3)cnc2n1
2. CNC1CCN(C(Cc2cccc(-c3ccncc3)c2)C(=O)c2sc3c(F)ccc(F)c3c2Cl)CC1 (centres undefined)
3. O=C(O)C[C@@H](NC(=O)c1cc(-c2ccc(-c3ccncc3)cc2)cs1)c1ccccc1
4. CC[C@H]1OC(=O)C[C@@H](O)[C@H](C)[C@@H](O[C@@H]2O[C@H](C)[C@@H](O)[C@H](N(C)C)[C@H]2O)[C@@H](CCN2C[C@H](C)C[C@H](C)C2)C[C@@H](C)C(=O)/C=C/C(C)=C/[C@@H]1CO[C@@H]1O[C@H](C)[C@@H](O)[C@@H](OC)[C@H]1OC
5. CCc1c(CC(N)=O)c2cc(OCCCP(=O)(O)O)ccc2n1Cc1ccccc1
6. O=C(Nc1ccc(Br)cc1)c1cc(Br)c(Br)s1

1. inactive
2. 10.7 µM (active)
3. 26.8 µM (active)
4. inactive
5. inactive
6. 21.3 µM (active)
